Molecular target: Env of HIV-1 strain YU2.DG (HIV-1)
Assay: cell-based or functional assay
value kind: neutralization IC50 (µg/mL)
Answers are plain numbers, in µg/mL.

What value of neutralization IC50 has been recorded for this entry: γ46κ61 (antibody, V domains shown) VH: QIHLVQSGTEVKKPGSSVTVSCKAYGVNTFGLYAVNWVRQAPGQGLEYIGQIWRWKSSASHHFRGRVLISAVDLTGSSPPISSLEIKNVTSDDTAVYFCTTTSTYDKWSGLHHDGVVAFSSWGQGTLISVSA VL: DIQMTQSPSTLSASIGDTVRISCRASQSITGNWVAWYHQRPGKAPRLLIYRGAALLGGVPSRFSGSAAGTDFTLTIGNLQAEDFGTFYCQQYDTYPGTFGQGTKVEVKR 0.918
